test.summary: Cytotoxicity against CHO-K1 cells assessed as inhibition of cell growth incubated for 48 hrs by MTT assay
Assay type: toxicity, cell-based, Cricetulus griseus
test.settings: Chinese hamster
Decide using IC50 at 48 h alone. Strictly below 50 µM: true (1). Equal to or above 50 µM: false (0).

Answered cases to consult:
is_below(IC50 at 48 h, 50 µM) for Cc1nc2c(c(C)c1O)/C(=C/c1cccnc1)C(=O)N2 ?
false (0)

is_below(IC50 at 48 h, 50 µM) for CCCCC/C=C1\C(=O)Nc2nc(C)c(O)c(C)c21 ?
true (1)

is_below(IC50 at 48 h, 50 µM) for COc1ccc(OC)c(/C=C2\C(=O)Nc3nc(C)c(O)c(C)c32)c1 ?
true (1)

is_below(IC50 at 48 h, 50 µM) for Cc1nc2c(c(C)c1O)/C(=C/c1ccncc1)C(=O)N2 ?
false (0)

is_below(IC50 at 48 h, 50 µM) for Cc1nc2c(c(C)c1O)/C(=C/c1ccc(N(C)C)cc1)C(=O)N2 ?
false (0)

is_below(IC50 at 48 h, 50 µM) for Cc1nc2c(c(C)c1O)/C(=C/c1ccoc1)C(=O)N2 ?
false (0)

Next:
is_below(IC50 at 48 h, 50 µM) for Cc1nc2c(c(C)c1O)/C(=C/C(c1ccccc1)c1ccccc1)C(=O)N2 ?
true (1)

is_below(IC50 at 48 h, 50 µM) for COc1ccc(Br)cc1/C=C1\C(=O)Nc2nc(C)c(O)c(C)c21 ?
true (1)

* * *

Test system: MCF7
test.summary: Cytotoxicity against human MCF7 cells assessed as inhibition of cell growth at 30 uM incubated for 48 hrs by MTT assay relative to control
Type: functional
measured.endpoint: inhibition at 30 µM (%)
API: value field is a number in %; no unit string.

What reported inhibition at 30 µM corresponds to Cc1nc2c(c(C)c1O)/C(=C/c1ccccc1[N+](=O)[O-])C(=O)N2 on MCF7?
23.9

What reported inhibition at 30 µM corresponds to CCCCC/C=C1\C(=O)Nc2nc(C)c(O)c(C)c21 on MCF7?
76.9

Next:
What reported inhibition at 30 µM corresponds to Cc1nc2c(c(C)c1O)/C(=C/c1nccs1)C(=O)N2 on MCF7?
5.6

What reported inhibition at 30 µM corresponds to COc1ccc(/C=C2\C(=O)Nc3nc(C)c(O)c(C)c32)cc1 on MCF7?
23.9

What reported inhibition at 30 µM corresponds to COc1ccc(Br)cc1/C=C1\C(=O)Nc2nc(C)c(O)c(C)c21 on MCF7?
74.7

What reported inhibition at 30 µM corresponds to Cc1nc2c(c(C)c1O)/C(=C/c1ccoc1)C(=O)N2 on MCF7?
66.3

What reported inhibition at 30 µM corresponds to Cc1cc(C)c(/C=C2\C(=O)Nc3nc(C)c(O)c(C)c32)[nH]1 on MCF7?
47.3

* * *

Tested on: MCF7
test.summary: Cytotoxicity against human MCF7 cells assessed as inhibition of cell growth at 30 uM incubated for 48 hrs by MTT assay relative to control
Type: functional
Definition: the class of an entry is the range in class 0 (below 20%), class 1 (20% to below 40%), class 2 (40% or more) that contains its inhibition at 30 µM.

Which category fits this record: Cc1ccsc1/C=C1\C(=O)Nc2nc(C)c(O)c(C)c21
class 2

Which category fits this record: COc1ccc(OC)c(/C=C2\C(=O)Nc3nc(C)c(O)c(C)c32)c1
class 2

Which category fits this record: COc1cc(/C=C/C=C2\C(=O)Nc3nc(C)c(O)c(C)c32)ccc1O
class 0

Next:
Which category fits this record: COc1cc(/C=C2\C(=O)Nc3nc(C)c(O)c(C)c32)cc(OC)c1OC
class 2

Which category fits this record: Cc1nc2c(c(C)c1O)/C(=C/c1ncc[nH]1)C(=O)N2
class 0

Which category fits this record: Cc1nc2c(c(C)c1O)/C(=C/C1CCCCC1)C(=O)N2
class 0
